Known post-emergent herbicidal activity index of a selection of molecules
system: Panicum Spp; experiment: post-emergent herbicidal activity, greenhouse; assay type: in vivo; details: Table II, 4 WAT, 5.6 kg/h

// solved cases for post-emergent herbicidal activity index follow
{"MOLECULE": "CCOC(=O)CNCP(=O)(O)OC(C#N)CC (stereo not shown)", "post-emergent herbicidal activity index": "4 (100% control)"}
{"MOLECULE": "CCOC(=O)CNCP(=O)(OCCN1CCCC1)OCCN1CCCC1", "post-emergent herbicidal activity index": "4 (100% control)"}
{"MOLECULE": "CC(C#N)OP(=O)(O)CNCC(=O)OCCCl (stereo not shown)", "post-emergent herbicidal activity index": "3 (75-99% control)"}

Note: attention shifts to another entry.
Req: Dear colleague, I am looking for the recorded post-emergent herbicidal activity index of the following molecule: CCOC(=O)CNCP(=O)(OC(C)C#N)OC(C)C#N (stereo not shown)
Resp: 4 (100% control)

----------
test system: Panicum Spp; experiment: post-emergent herbicidal activity, greenhouse; format: in vivo; details: Table II, 4 WAT, 5.6 kg/h
PROPERTY: post-emergent herbicidal activity index

// solved cases for post-emergent herbicidal activity index follow
{"COMPOUND": "CCOC(=O)CNCP(=O)(O)OC(C)C#N (stereo not drawn)", "PROPERTY": "post-emergent herbicidal activity index", "VAL": "4 (100% control)"}
{"COMPOUND": "CCOC(=O)CNCP(=O)(OCC1COC(C)(C)O1)OCC1COC(C)(C)O1 (stereo not drawn)", "PROPERTY": "post-emergent herbicidal activity index", "VAL": "3 (75-99% control)"}

Req: Dear colleague, I am looking for the recorded post-emergent herbicidal activity index of the following compound: CC(C#N)OP(=O)(CNCC#N)OC(C)C#N (stereo not drawn)
Resp: 1 (25-49% control)
